Biological target: Serine/threonine-protein kinase TNNI3K (Homo sapiens)
Test: Inhibition of TNNI3K (unknown origin) assessed as residual activity at 1 uM using biotinylated CTnI as substrate by HTRF analysis relative to control
# strict inequality: Activity < 40% yields fulfilled, everything else yields not fulfilled

(Q) is_below(Activity, 40%) for `CN(C)CCCN1CCc2c(sc3ncnc(Nc4ccc(N(C)C)c(NC(=O)c5cccs5)c4)c23)C1` ?
(A) fulfilled

(Q) Could you please tell me whether Activity recorded for `CCC(=O)Nc1cc(Nc2ncnc3sc4c(c23)CCNC4)ccc1N(C)C` is less than 40%?
(A) not fulfilled

(Q) Activity under 40%? Item: `CN(C)c1ccc(Nc2ncnc3sc4c(c23)CCN(C(=O)c2cnccn2)C4)cc1NC(=O)c1ccco1`
(A) not fulfilled

(Q) Field: below-cutoff. Rule: recorded Activity strictly less than 40%. Subject: `CN1CCc2c(sc3ncnc(Nc4ccc(N(C)C)c(NC(=O)c5ccco5)c4)c23)C1`
(A) fulfilled

(Q) hey, is Activity for `CN(C)c1ccc(Nc2ncnc3sc4c(c23)CCN(C(=O)c2ncccn2)C4)cc1NC(=O)c1ccco1` lower than 40% or not?
(A) not fulfilled

(Q) Does this molecule meet the criterion Activity < 40%? `CN(C)c1ccc(Nc2ncnc3sc4c(c23)CCN(C(=O)c2cnccn2)C4)cc1NC(=O)c1cccs1`
(A) not fulfilled

(Q) I'd appreciate it if you could check whether `CN(C)c1ccc(Nc2ncnc3sc4c(c23)CCNC4)cc1NC(=O)c1cccs1` has Activity smaller than 40%.
(A) fulfilled

// provenance: ChEMBL document CHEMBL4765301
